- Test system: LOX IMVI
- Assay info: NCI tumour cell line growth inhibition, 48 h
The source made the active and inactive calls. No stated cut-off is given here; in the data, active = GI50 up to about 1.1 µM and inactive = higher. Residues, ends and D or L forms follow the SMILES beside them.
Please provide measured GI50 for the entries that follow.

These recorded examples may help you get a feel for the data.
Compound	Result
COc1cc(C2SCC(=O)N2c2ccc(-c3ccc(-n4c(-c5ccccc5)nc5ccccc5c4=O)cc3)cc2)ccc1O (configuration not stated)	27.2 µM (inactive)
CC12CCC(C(=O)OC1=O)C2(C)C (configuration not stated)	> 100 µM (inactive)
Cc1c2cccc(Sc3ccccc3)c2c2c3c(cccc13)[S+](c1ccccc1)C2 (configuration not stated)	1.72 µM (inactive)
CC[C@H]1CN2CCc3cc(OC)c(OC)cc3[C@@H]2C[C@@H]1C[C@H]1NCCc2c1[nH]c1ccc(O)cc21 [TUBULOSINE]	< 0.01 µM (active)
O=C([O-])Cc1ccccc1.[Na+] [SODIUM PHENYLACETATE]	1160 µM (inactive)

Please look at the items below and tell me GI50 for each one, in order.
1. O=c1cccc(C2CC(CO)C3CCCCN3C2)[nH]1 (configuration not stated)
2. COc1cc2c(cc1OC)C1C3CCCCC3CCN1CC2 (configuration not stated)
3. [N-]=[N+]=Nc1c([N+](=O)[O-])c(Cl)nc2ccccc12
4. COC(=O)N/N=C(\C)c1sc(-c2nc(C)c(/C(C)=N/NC(=O)OC)s2)nc1C
5. CCC(C)C(NC(=O)C(CC(C)C)NC(=O)CNC(=O)C(NC(=O)C1CCCN1C(=O)C(CC(C)C)NC(=O)C(N)Cc1ccccc1)C(C)CC)C(=O)NC(CC(C)C)C(N)=O (configuration not stated) (H-FLPIGLIL-NH2; configuration not given here)
6. O=C(CCN1CCOCC1)C(=Cc1ccccc1)C(=O)CCN1CCOCC1

["> 100 µM (inactive)", "> 100 µM (inactive)", "1.59 µM (inactive)", "64.1 µM (inactive)", "> 75 µM (inactive)", "1.93 µM (inactive)"]

Please look at the items below and tell me GI50 for each one, in order.
1. O=Cc1cc([N+](=O)[O-])no1
2. Cc1occc1C(=S)Nc1ccc(Cl)c(C(=O)OC(C(C)C)C(C)C)c1
3. COc1cc(C)c2c(c1)CN1CN2Cc2cc(OC)cc(C)c21

7.13 µM (inactive)
13 µM (inactive)
66.2 µM (inactive)

Please look at the items below and tell me GI50 for each one, in order.
1. CC(C)(C)C1CCC(O)(c2ccccc2)CC1 (configuration not stated)
2. C=CCN1C(=O)CC2[C@@H]3CCc4cc(O)ccc4C3CC[C@]2(C)C1=O (some centres not stated)
3. S=c1[nH]nc(Cc2ccccc2)c(=S)[nH]1
4. COC1(OC)C2(Cl)C(Cl)=C(Cl)C1(Cl)C1c3ccc(C(C)=O)c4cccc(c34)C12 (configuration not stated)

["77.6 µM (inactive)", "> 10 µM (inactive)", "> 52.7 µM (inactive)", "22.5 µM (inactive)"]

Please look at the items below and tell me GI50 for each one, in order.
1. C/C(=N\NC(=O)c1ccccc1O)c1cccc(/C(C)=N/NC(=O)c2ccccc2O)n1.[Cl-].[Cl-].[Zn+2]
2. Clc1ccc(/N=c2\oc3ccccc3cc2-c2nc3ccccc3[nH]2)c(Cl)c1
3. O=C(c1ccccc1)c1nc2ccc(Cl)cc2cc1C(Br)Br
4. C[Si](C)(C)[C@@]1([Se]c2ccccc2)CC[C@@H]1C(=O)c1ccccc1

["1.37 µM (inactive)", "> 100 µM (inactive)", "1.47 µM (inactive)", "35.9 µM (inactive)"]
